- test_target: acetylcholine receptor
- protocol_notes: SPR, receptor immobilised on chip, peptide at 10 µM
recorded_endpoint: Binding affinity (RU)
Answers are plain numbers, in RU.

Take a look at these entries with their results.
- binder: "KWYTRK [6mer-2-478]"
  unit_name: "RU"
  Binding affinity: 145
- binder: "KGQTRR [6mer-2-482]"
  unit_name: "RU"
  Binding affinity: 154
- binder: "RVFCRR [6mer-2-511]"
  unit_name: "RU"
  Binding affinity: 126
- binder: "RGICKR [6mer-2-507]"
  unit_name: "RU"
  Binding affinity: 145

# batch size: 8; output Binding affinity per entry
1. RVVLRK [6mer-2-522]
2. RRLTRK [6mer-2-513]
3. RWFTRR [6mer-2-512]
4. RGRLRK [6mer-2-473]
5. RLRRRK [6mer-2-470]
6. RVISKK [6mer-2-489]
7. RLRTKK [6mer-2-469]
8. RSYSKR [6mer-2-530]

1. 124
2. 121
3. 148
4. 131
5. 153
6. 142
7. 153
8. 139

# batch size: 3; output Binding affinity per entry
1. RRFTKK [6mer-2-480]
2. KSLLKK [6mer-2-506]
3. KRICKR [6mer-2-491]

1. 147
2. 135
3. 135

# batch size: 2; output Binding affinity per entry
1. KRQCKK [6mer-2-505]
2. KVQTKK [6mer-2-503]

148
154
